assay text: Cytotoxicity, MTT test, SH-SY5Y
Format: cell-based
details: human, SH-SY5Y cells (human neuroblastoma)
quantity measured: IC50 at 48 h (µM)
Write the answer as a number in µM, unit excluded.

Give the measured IC50 at 48 h of O=S(=O)(c1cccc(N2CCNCC2)c1)N1Cc2cccc(Br)c2C1 [3g] .
48

Could you do the same for COc1cccc2c1C(=O)c1c(O)c3c(c(O)c1C2=O)C[C@@](O)(C(=O)CO)C[C@@H]3O[C@H]1C[C@H](N)[C@H](O)[C@H](C)O1 [Doxorubicin, reference compound] , please?
4.4

Could you do the same for O=S(=O)(c1cccc(N2CCNCC2)c1)N1Cc2ccccc2C1 [3e] , please?
42

Could you do the same for O=S(=O)(c1cccc(N2CCNCC2)c1)N1Cc2cccc(Cl)c2C1 [3f] , please?
38
